Overview of recorded inhibition for various compounds
Subject Of Test: Cytochrome P450 2C19 (Homo sapiens)
Protocol: blockers of cytochrome P450 2C19 activity – biochemical, luminescence, ADME assay, primary screen (AID 778);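 further: plate controls were negative control wells for no effect and 2.5 mM tranylcypromine positive control for full effect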
Condition Set: CYP2C19 Supersomes, luciferin-H EGE luminescence, 30 min; at 5 µM; active compounds read high
About 20,000 (21%) of roughly 96,000 compounds were called active. The list is a sample of the results.
Metric Name: inhibition (%)

{"columns": ["Compound", "Unit", "Observed Measurement"],
 "data": [
  ["C/C(CCc1c[nH]c2ccccc12)=N\\O", "%", 12],
  ["CCCCCn1c(=O)c(C(=O)NCc2ccccn2)c(O)c2ccccc21", "%", 26],
  ["Cc1nc2ccccn2c1P(=S)(N1CCCCC1)N1CCCCC1", "%", 17.2],
  ["CCCCCn1c(=O)c(C(=O)Nc2c(C)n(C)n(-c3ccccc3)c2=O)c(O)c2ccccc21", "%", 1.4],
  ["CCCCn1c(O)c(C(CC)=NCc2ccco2)c(=O)[nH]c1=O", "%", 29.9],
  ["COC(=O)N(c1ccc(OC)cc1)P1(=S)OCCC(C)O1 (stereo unspecified)", "%", 21.5],
  ["CCOc1ccc(CN(CCCl)CCCl)cc1C(=O)OC", "%", 63.9],
  ["CCN(CC)C(=O)c1ccc(NC(=O)c2cc(-n3cnnc3)ccc2Cl)cc1", "%", 11.1],
  ["O=C1NC(=O)C(C/C=C/c2ccccc2)C(=O)N1", "%", 5],
  ["CCC/C(=N\\O)c1c[nH]c2ccccc12", "%", 72.6],
  ["CNC(=O)N(C)c1nnc(C(C)(C)C)s1", "%", -8.5],
  ["CC(=NC1CCN(Cc2ccccc2)CC1)c1c(O)n(C)c(=O)n(C)c1=O", "%", 8.1],
  ["C=CCN1C(=O)C2(C(C(=O)OCC)=C(N)Oc3c2c(=O)oc2ccccc32)c2ccccc21 (stereo unspecified)", "%", 88.5],
  ["NC(=O)Nc1cccc(C(F)(F)F)c1", "%", 26.2],
  ["O=C(CSC1c2ccccc2-c2ccccc21)N/N=C/c1ccccc1", "%", 25.3],
  ["CCCC(C)n1[nH]c(=O)c2c1NC(=O)CSC2c1ccc(OC)c(OC)c1 (stereo unspecified)", "%", 7.2],
  ["COC(=O)CN1C(=O)C2(C(C(=O)OC)=C(N)Oc3ccccc32)C2=C1CC(C)(C)CC2=O (stereo unspecified)", "%", 18.2],
  ["CCc1cccc2c(C#N)cn(CC(=O)N3CCOCC3)c12", "%", 6.7],
  ["N#Cc1ccc(Cn2cc(C(=O)c3ccco3)c3ccccc32)cc1", "%", 9.2],
  ["CCOC(=O)C(O)(c1ccc(N)c(OC)c1)C(F)(F)F (stereo unspecified)", "%", 20.4],
  ["CCOC(=O)C1CN(C)CCC1=O (stereo unspecified)", "%", -3.5],
  ["COc1ccc(CCn2c(O)c(C=NC3CC3)c(=O)[nH]c2=O)cc1OC", "%", 94.9],
  ["CSC1=NP(=S)(SC)N(C)c2nc3n(c21)CCC3 (stereo unspecified)", "%", 8.2],
  ["CN(C)C(=O)NC(O)C(Cl)(Cl)Cl (stereo unspecified)", "%", 23.9],
  ["c1ccc(C2NCc3ccccc3-n3cccc32)cc1 (stereo unspecified)", "%", 33],
  ["CCNc1nc2[nH]c(=O)c3c(c2s1)OC(N)=C(C#N)C3c1cccs1 (stereo unspecified)", "%", -19.6],
  ["CC(=O)Nc1ccccc1C(=O)OCC(=O)c1cccc2ccccc12", "%", 51.1],
  ["CCOC(=O)CC1=C(C(=O)OCC)C2(C(=O)N1)C(C(=O)OC)=C(N)Oc1ccccc12 (stereo unspecified)", "%", 4.8],
  ["COc1ccc(CN2CCN(c3ccccc3F)CC2)c(OC)c1", "%", 86.7],
  ["COC(=O)C(c1ccccc1)N1CCCCCC1 (stereo unspecified)", "%", 12.8],
  ["O=c1c2ccccc2nc(-c2ccc(Cl)cc2Cl)n1-c1ccncc1", "%", 76.4],
  ["Cn1c(C(=O)N2CCC(C(=O)N3CCC4(CC3)OCCO4)CC2)cc2sccc21", "%", 7.5],
  ["CCN1CCN(C(=O)Cc2coc3cc(C)cc(C)c23)CC1", "%", 89.1],
  ["CC(=NCC1CCCO1)c1c(O)n(-c2ccccc2)c(=O)[nH]c1=O (stereo unspecified)", "%", 22.9],
  ["COc1ccccc1N=C1SCCCN1C", "%", -31.2],
  ["O=C(COc1ccc2ccccc2c1)N1CCN(Cc2ccncc2)CC1", "%", 90.1],
  ["CCOC(=O)c1c(C)c(C(=O)N2CCC3(CC2)OCCO3)c(C)n1CC", "%", 49.7],
  ["O=C(c1cc2nc(-c3ccccc3)cc(-c3ccccc3)n2n1)N1CCC2(CC1)OCCO2", "%", 94],
  ["CC1=C(C(=O)Nc2ccccc2)SCCO1", "%", -3.1],
  ["CC[N+](CC)(CC)CCCCCCCCCC[N+](CC)(CC)CC", "%", 14.9],
  ["O=C(CCN1CCCCC1)NCC(=O)Nc1ccc(Br)cc1C(=O)c1ccccc1", "%", -17.3],
  ["Cc1cc(N2C(=O)C3CCCN3C2c2ccc(Cl)c(Cl)c2)no1 (stereo unspecified)", "%", 11.9],
  ["Nc1ccc(C(=O)N/N=C2/CN3CCC2CC3)cc1", "%", 15.9],
  ["CCOC(=O)C1SC2(C(F)(F)C(F)F)CC1(O)c1c(c(OC)c3occc3c1OC)O2 (stereo unspecified)", "%", 92.1],
  ["Cc1nc2nc(C)c(CCC(=O)N3CCC4(CC3)OCCO4)c(C)n2n1", "%", 0],
  ["O=C(c1cc(-c2ccncc2)nc2ccccc12)N1CCC2(CC1)OCCO2", "%", 35.1]
]}
